Reference for the values: PubChem BioAssay (NCI)

- System: A498 renal
- protocol-summary: NCI-60 one-dose screen, 48 h (100 = growth as untreated, 0 = no growth, -100 = all killed)
- assay-context: 10 µM unless noted
About 83,000 compounds went through this panel and 20% of them were active in at least one assay; those are over-represented in the sample as a whole.
Reported growth values follow for various compounds
# unit: % | format: bare number

Worked cases, answers included:
c1ccc(-c2oc3ccccc3c2-c2ccccc2)cc1
89.9
CCNCCNc1cc(-c2ccc(F)cc2)c(C#N)c2nc3ccccc3n12
-9.7
COc1cc(C2CC(c3ccc(Nc4nc(Nc5ccc(F)cc5)nc(Nc5ccc(Cl)cc5)n4)cc3)=NN2C(C)=O)cc(OC)c1OC (stereo not given)
78.4
COc1cc(NC(=O)c2cccc(-c3cc(=O)c4c(OC)c(OC)c(OC)cc4o3)c2)cc(OC)c1OC
57.4

// moving on: another record for growth
Fill blank: measured growth of the compound CCOC(=O)c1sc2ccc(NCc3nc[nH]c3C)cc2c1NC(=O)c1cc(OC)c(OC)c(OC)c1 is ____. 101
